Target: T1, His-NinH N18A (Bacteriophage lambda (cI857 Sam7), UniProt P03771 1-68, A15T;N18A)
T1 sequence: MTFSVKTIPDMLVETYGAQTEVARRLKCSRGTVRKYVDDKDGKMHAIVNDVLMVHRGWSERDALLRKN
Experiment: MST; intermediate effect; MST: PBS pH 7.4 + 0.05% Tween-20, 22 C; anisotropy: 6.7 mM Tris-HCl pH 8.0, 3.3 nM (so in the source) sodium acetate, 2 mM EDTA, 25 C; EMSA (32P): 50 mM Tris-HCl pH 8.0, 5 mM EDTA, 1 mM DTT, 5% glycerol, 100 ug/ml BSA, on ice; EMSA (Cy520): PBS pH 7.4, room temp
Settings: protein: recombinant; tags: N-His6; chain copies: 2; label: 5'-Cy5 on strand 1; blunt
pKd: −log10 of the molar value.

{"Binder": "Cy520 (NinH consensus) (dsDNA) DNA 1: ACCGATCAAGAATTGTGCAT DNA 2: ATGCACAATTCTTGATCGGT", "pKd": "< 6.66"}
